Value source: patent EP0115820A2

tested on: Pseudomonas aeruginosa K-13; assay: Minimum inhibitory concentration (MIC); type: cell-based; conditions: K13; Pseudomonas aeruginosa K-13; bacterial suspension 10^6 cells/ml; sodium salts tested; read-out: Minimum inhibitory concentration
measured_quantity: MIC (µg/mL)
Numbers only; they are read as µg/mL.

Worked examples, 4 compounds total:
1. Cn1nnnc1SCC1=C(C(=O)O)N2C(=O)[C@@H](NC(=O)C(NC(=O)c3ccc(O)c(O)c3)c3csc(N)n3)[C@H]2SC1 (mixture of isomers) ... 0.1
2. CO[C@@]1(NC(=O)C(NC(=O)c2ccc(OC(C)=O)c(OC(C)=O)c2)c2csc(N)n2)C(=O)N2C(C(=O)O)=C(CSc3nnnn3C)CS[C@@H]21 (mixture of isomers) ... 0.2
3. CO[C@@]1(NC(=O)C(NC(=O)c2cccc(OC(C)=O)c2OC(C)=O)c2csc(N)n2)C(=O)N2C(C(=O)O)=C(COC(C)=O)CS[C@@H]21 (mixture of isomers) ... 6.25
4. CC(=O)OCC1=C(C(=O)O)N2C(=O)[C@@H](NC(=O)C(NC(=O)c3ccc(OC(C)=O)cc3)c3csc(N)n3)[C@H]2SC1 (mixture of isomers) ... 100

Now for the compound whose MIC we want.
Summary for this compound, CO[C@@]1(NC(=O)C(NC(=O)c2ccc(OC(C)=O)c(OC(C)=O)c2)c2csc(N)n2)C(=O)N2C(C(=O)O)=C(COC(C)=O)CS[C@@H]21 (mixture of isomers) : MIC is 1.56

###

Recorded measurements of MIC, one per entry
test system: Pseudomonas aeruginosa Y-1; assay: Minimum inhibitory concentration (MIC); format: cell-based; details: Y1; Pseudomonas aeruginosa Y-1; bacterial suspension 10^6 cells/ml; sodium salts tested; read-out: Minimum inhibitory concentration
Numbers only; they are read as µg/mL.

1) CC(=O)OCC1=C(C(=O)O)N2C(=O)[C@@H](NC(=O)C(NC(=O)c3ccc(O)cc3)c3csc(N)n3)[C@H]2SC1 (mixture of isomers) [Example 24] ... 50
2) CC(=O)Oc1cccc(C(=O)NC(C(=O)N[C@@H]2C(=O)N3C(C(=O)O)=C(CSc4nnnn4C)CS[C@H]23)c2csc(N)n2)c1OC(C)=O (mixture of isomers) [Example 4] ... 0.78

Now for the molecule whose MIC we want.
Summary for this molecule, CO[C@@]1(NC(=O)C(NC(=O)c2ccc(OC(C)=O)c(OC(C)=O)c2)c2csc(N)n2)C(=O)N2C(C(=O)O)=C(CSc3nnnn3C)CS[C@@H]21 (mixture of isomers) [Example 10] : MIC is 0.2

###

test system: Pseudomonas aeruginosa Y-1; assay: Minimum inhibitory concentration (MIC); assay type: cell-based; conditions: Y1; Pseudomonas aeruginosa Y-1; bacterial suspension 10^6 cells/ml; sodium salts tested; read-out: Minimum inhibitory concentration
measured_quantity: MIC

Summary for this molecule, CC(=O)Oc1ccc(C(=O)NC(C(=O)N[C@@H]2C(=O)N3C(C(=O)O)=C(CSc4nnnn4C)CS[C@H]23)c2csc(N)n2)cc1OC(C)=O (mixture of isomers) : MIC is 0.05 µg/mL

Summary for this molecule, CC(=O)Oc1cc(C(=O)NC(C(=O)N[C@@H]2C(=O)N3C(C(=O)O)=C(CSc4nnnn4C)CS[C@H]23)c2csc(N)n2)cc(OC(C)=O)c1OC(C)=O (mixture of isomers) : MIC is 0.1 µg/mL

Summary for this molecule, CCOC(=O)Oc1ccc(C(=O)NC(C(=O)N[C@@H]2C(=O)N3C(C(=O)O)=C(CSc4nnnn4C)CS[C@H]23)c2csc(N)n2)cc1OC(=O)OCC (mixture of isomers) : MIC is 0.1 µg/mL

Summary for this molecule, CO[C@@]1(NC(=O)C(NC(=O)c2ccc(O)c(O)c2)c2csc(N)n2)C(=O)N2C(C(=O)O)=C(CSc3nnnn3C)CS[C@@H]21 (mixture of isomers) : MIC is 0.2 µg/mL

Summary for this molecule, CC(=O)OCC1=C(C(=O)O)N2C(=O)[C@@H](NC(=O)C(NC(=O)c3ccc(OC(C)=O)cc3)c3csc(N)n3)[C@H]2SC1 (mixture of isomers) : MIC is 200 µg/mL

Summary for this molecule, CO[C@@]1(NC(=O)C(NC(=O)c2cc(OC(C)=O)c(OC(C)=O)c(OC(C)=O)c2)c2csc(N)n2)C(=O)N2C(C(=O)O)=C(CSc3nnnn3C)CS[C@@H]21 (mixture of isomers) : MIC is 0.78 µg/mL
